# system: Aldehyde dehydrogenase 1A1 (Homo sapiens)
# assayMethodText: qHTS Assay for Inhibitors of Aldehyde Dehydrogenase 1 (ALDH1A1)
# experimentalParameters: Purified ALDH1A1, NADH fluorescence, propionaldehyde substrate; series mostly up to 75.3 µM
The campaign covered roughly 220,000 compounds. About 16,000 (7.3%) were called active. Inconclusive results (about 25%) are left out. The call rests on the fitted dose curve; in most records, active means well fitted inhibition curve with a large enough effect (not every such curve was filed as active); inconclusive means small, poorly fitted or top-dose-only effect, or another doubt; inactive means no such curve, though single readings can be large or run the other way. This excerpt belongs to a sample that is enriched for actives.
Outcome (select one): 1 for active, 0 for inactive

As a guide, the following entries are already answered.
> print(dat)
                                   molecule  classassignment
1     N/C(=N\S(=O)(=O)c1ccc(Cl)cc1)N1CCOCC1                0
2               CCOC(=O)NNC(=O)c1ccc(Cl)cc1                0
3  CCc1cc2c(SCC(=O)Nc3ncc(Cl)c(C)c3Cl)ncnc2s1                0

Consider the additional molecule presented here.
## Input Given O=C(c1cccs1)C1C(c2ccc(Br)cc2)NC(=S)NC1(O)C(F)(F)F (stereo not given) , state the outcome it received in this test.
## Output 1
